- Test system: blackgrass (Alopecurus myosuroides)
- test-summary: Test A postemergence, blackgrass
- Type: in vivo
- condition-details: Alopecurus myosuroides, post-emergence, 240 h; 31 g ai/ha, postemergence; 0 to 100 scale, 0 is no effect, 100 is complete control; approximately 10 days; read-out: Plant response rating, Blackgrass
quantity-kind: pest or weed control at 31 g/ha (%)
Report the figure in % without appending any unit label.

Past entries and their recorded results:
N#Cc1cccc(Oc2ncc(F)cn2)c1OCCCC(F)(F)F | 40
N#Cc1cccc(Oc2ncc(Cl)cn2)c1OCC(F)(F)F | 0
N#Cc1cccc(Oc2ncc(Cl)cn2)c1OCCC(F)(F)F | 20

Using the record for Cc1cccc(Oc2ncc(Cl)cn2)c1OCC(F)(F)F , report its pest or weed control at 31 g/ha.
0

Also check FC(F)(F)COc1c(Cl)cccc1Oc1ncc(Cl)cn1
0

====

- System: sedge, umbrella (small-flower umbrella sedge, Cyperus difformis)
- test-summary: Test B flooded paddy test, umbrella sedge
- Assay type: in vivo
- condition-details: 250 g ai/ha, Flood; visual rating after 13 to 15 days; scale 0 to 100, 0 is no effect, 100 is complete control
- Protocol: Plant species in the flooded paddy test selected from rice (Oryza sativa), sedge, umbrella (small-flower umbrella sedge, Cyperus difformis), ducksalad (Heteranthera limosa), and barnyardgrass (Echinochloa crus-galli) were grown to the 2-leaf stage for testing. […] Treated plants and controls were maintained in a greenhouse for 13 to 15 days, after which time all species were compared to controls and visually evaluated. […]
The threshold is inclusive: Plant response rating, Sedge, Umbrella of exactly 60 counts as criterion met; values below receive criterion not met.

// below: answered compounds
Cc1cccc(Oc2ncc(Cl)cn2)c1OCCC(F)(F)F [Compound 64] | criterion met
Cc1cccc(Oc2ncc(Cl)cn2)c1OCCCC(F)(F)F [Compound 55] | criterion met
N#Cc1cccc(Oc2ncc(F)cn2)c1OC/C=C/C(F)(F)F [Compound 39] | criterion met

hey, is Plant response rating, Sedge, Umbrella for this one >= 60? N#Cc1cccc(Oc2ncc(Cl)cn2)c1OCC(F)(F)C(F)F [Compound 14]
criterion not met

Okay, and Cc1cccc(Oc2ncc(Cl)cn2)c1OCCCF [Compound 57] ?
criterion not met

====

quantity-kind: melting point

Record excerpt, results attached:
N#Cc1cccc(Oc2ncc(F)cn2)c1OCC(F)(F)F | 58 to 63 °C
N#Cc1cccc(Oc2ncc(Cl)cn2)c1OC/C=C/C(F)(F)F | 102 to 106 °C
FC(F)(F)COc1c(I)cccc1Oc1ncc(Cl)cn1 | 87 to 90 °C
N#Cc1cccc(Oc2ncc(F)cn2)c1OCCCC(F)(F)F | 70 to 74 °C

# ---- query compound ----
Item N#Cc1cccc(Oc2ncc(Cl)cn2)c1OCCCC(F)(F)F has what recorded melting point?
51 to 54 °C

====

- Tested on: pigweed (Amaranthus retroflexus)
- test-summary: Test A preemergence, pigweed
- Assay type: in vivo
- condition-details: Preemergence, 31 g ai/ha; 0 to 100 scale (0 no effect, 100 complete control)
// assign Satisfied if Plant response rating, Pigweed falls strictly below 70, else Not satisfied (ties count as Not satisfied)

Sample answers from the record:
FC(F)(F)CCOc1c(I)cccc1Oc1ncc(Cl)cn1 [Compound 69] | Not satisfied
CCC(=O)COc1c(C#N)cccc1Oc1ncc(Cl)cn1 [Compound 75] | Satisfied
N#Cc1cccc(Oc2ncc(Cl)cn2)c1OCCCC(F)(F)F [Compound 72] | Satisfied

Does this compound meet the criterion Plant response rating, Pigweed < 70? N#Cc1cccc(Oc2ncc(F)cn2)c1OC/C=C/Cl [Compound 36]
Not satisfied
